test system: C26 murine colon carcinoma cells; test: In vitro cytotoxicity; type: cell-based; details: 72 h, in the absence of MSA and ABD, n = 3 (Figure 2H)
quantity: IC50 (nM)
Give your result in nM as a bare value.

Query: Sample COc1cccc2c1C(=O)c1c(O)c3c(c(O)c1C2=O)C[C@@](O)(C(=O)CO)C[C@@H]3O[C@H]1C[C@H](N)[C@H](O)[C@H](C)O1 [free Dox, doxorubicin] — what was its IC50?
Result: 230

====

test system: MIA PaCa-2 cells; assay: In vitro cytotoxicity; assay type: cell-based, human; details: 72 h incubation, MTS, Dox equiv. concentration, n = 3 (Figure 2F)
quantity: IC50 (µM)
Give your result in µM as a bare value.

Query: Sample COc1cccc2c1C(=O)c1c(O)c3c(c(O)c1C2=O)C[C@@](O)(C(=O)CO)C[C@@H]3O[C@H]1C[C@H](N)[C@H](O)[C@H](C)O1 [free Dox, doxorubicin] — what was its IC50?
Result: 0.04
